System: HCT-15
Procedure summary: Cytotoxicity against human HCT15 cells by sulforhodamine B assay
Assay type: functional, cell-based
// returns -1 unless IC50 is strictly below 3 µg/mL, in which case 1

• COC(=O)CNc1nc(-c2ccccc2)nc2ccccc12 = -1
• COc1cccc2c1C(=O)c1c(O)c3c(c(O)c1C2=O)C[C@@](O)(C(=O)CO)C[C@@H]3O[C@H]1C[C@H](N)[C@H](O)[C@H](C)O1 [DOXORUBICIN] = 1

Prompt: Does CC(C)Nc1nc(-c2ccccc2)nc2ccccc12 have IC50 strictly under 3 µg/mL?
Completion: -1

Prompt: Another: c1ccc(-c2nc(NC3CCCCC3)c3ccccc3n2)cc1
Completion: 1

Prompt: Another: Cl.c1ccc(CNc2nc(-c3ccccc3)nc3ccccc23)cc1
Completion: -1

Prompt: Another: CN1CCCN(c2nc(-c3ccccc3)nc3ccccc23)CC1
Completion: -1

Prompt: Another: COCCNc1nc(-c2ccccc2)nc2ccccc12
Completion: -1

---

Test system: HCT-15
Procedure summary: Cytotoxicity against human HCT15 cells by sulforhodamine B assay
Type: functional, cell-based
Examples of molecules with documented IC50 follow.

- CCOC(=O)CCNc1nc(-c2ccccc2)nc2ccccc12.Cl: > 100 µg/mL

Prompt: Value lookup for IC50; key = CC[C@@]1(O)C(=O)OCc2c1cc1n(c2=O)Cc2cc3ccccc3nc2-1
Completion: 0.096 µg/mL

Prompt: Another: c1ccc(CNc2nc(-c3ccccc3)nc3ccccc23)cc1
Completion: 13.9 µg/mL

Source: ChEMBL document CHEMBL1806425
